Tgt: T1, muCD98hc ECD Avi-His (mouse, UniProt P10852 100-526)
T1 construct: biotinylated on the Avi tag where captured on streptavidin; also called Mouse CD98-AVI-His; Mouse CD98hc-AVI-His
T1 sequence: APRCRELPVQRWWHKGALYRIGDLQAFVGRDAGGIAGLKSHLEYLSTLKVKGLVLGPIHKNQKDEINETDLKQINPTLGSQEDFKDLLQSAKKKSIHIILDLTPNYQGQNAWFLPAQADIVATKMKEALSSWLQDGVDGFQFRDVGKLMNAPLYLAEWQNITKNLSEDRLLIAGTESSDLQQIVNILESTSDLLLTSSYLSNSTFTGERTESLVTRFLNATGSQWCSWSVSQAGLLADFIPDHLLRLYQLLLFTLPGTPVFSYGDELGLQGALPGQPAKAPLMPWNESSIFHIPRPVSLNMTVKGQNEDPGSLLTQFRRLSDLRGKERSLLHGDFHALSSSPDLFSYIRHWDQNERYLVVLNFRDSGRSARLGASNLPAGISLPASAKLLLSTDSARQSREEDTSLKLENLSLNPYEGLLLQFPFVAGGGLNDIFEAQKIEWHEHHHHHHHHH
Assay overview: ELISA, hybridoma supernatant
Quantity: OD450
The response must contain the number and no unit.

Request the reported OD450 associated with CD98HC.04.045 (antibody, V domains shown, hybridoma IgG) VH: QIQLVQSGPELKKPGETVKISCKASGYSITNFGMNWVKQAPGKGLKWMGWVNTYTGEPTYADDFKGRFAFSLETSASTASLQINNLKNEDTATYFCTRSVITYTMDYWGQGTSVTVSS VL: DIQLTQSPSSLSASLGERVSLTCRASQEISGYLSWLQQKPDGTIKRLIYAASTLDSGVPKRFSGSRSGSDYSLTISSLESEDFADYYCLQYASYPRTFGGGTKVEIK 0.0764

Similarly, CD98HC.04.022 (antibody, V domains shown, hybridoma IgG) VH: EVQLQQSGAELVKPGASVKLSCTASGFNIKDTFMHWMKQRPEQGLEWIGRIDPANANTRYDPKFQGKATITTDTSSNTAYLQLSSLTSEDTAVYYCARDVYYDVWGAGTTVTVSS VL: DILMTQSPSSMSVSLGDTVTITCHASQGISSNIGWLQQKPGRSFKGLIYHGSNLEDGVPSRFTGSGSGTDYSLTISGLESEDFADYYCVQYAQFPRTFGGGTKLEIQ ? 0.0554

Similarly, CD98HC.03.004 (antibody, V domains shown, hybridoma IgG) VH: DVQLQESGPGLVKPSQSLSLTCTVTGYSITNNYAWNWIRRFPGNKLEWMAYISYSGYTSYNPSLKSRISITRDTSKNQFFLQLNSVTTEDTATYYCTGYFYYYGGGSFDYWGQGTTLTVSS VL: QAVVTQESALTTSPGETVTLTCRSSTGAVTTSNFANWVQEKPDHLFTGLIRGSNNRAPGVPARFSGSLIGDKAALTITGARTEDEAIYFCALWYSDHWVFGGGTKLTVL ? 0.0938

Each recorded value in this set is attributed to patent US20250270341A1.
